Data origin, for the record: ChEMBL document CHEMBL5291721

- Assayed system: UniProt:P25021
- Sequence (P25021 whole entry): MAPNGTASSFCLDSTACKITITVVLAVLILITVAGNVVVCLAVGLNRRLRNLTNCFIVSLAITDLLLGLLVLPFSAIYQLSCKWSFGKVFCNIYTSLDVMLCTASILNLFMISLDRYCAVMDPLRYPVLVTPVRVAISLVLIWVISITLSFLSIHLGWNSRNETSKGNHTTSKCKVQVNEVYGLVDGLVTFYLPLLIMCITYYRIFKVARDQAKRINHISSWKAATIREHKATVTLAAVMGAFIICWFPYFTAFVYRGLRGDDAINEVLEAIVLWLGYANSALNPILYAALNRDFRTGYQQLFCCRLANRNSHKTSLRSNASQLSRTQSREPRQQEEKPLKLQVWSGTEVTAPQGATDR
Measurement label: AC50

Examples with their reported AC50 follow.
{"Compound": "O=C(O)Cc1ccccc1Oc1ccc(Cl)cc1Cl", "Data value": "> 10 µM"}
{"Compound": "CCCCOc1ccc(C(=O)CCN2CCCCC2)cc1", "Data value": "3.13 µM"}

Need AC50 of CN(Cc1cnc2nc(N)nc(N)c2n1)c1ccc(C(=O)N[C@@H](CCC(=O)O)C(=O)O)cc1 [METHOTREXATE] , thanks.
> 10 µM

Need AC50 of "NNC(=O)c1ccncc1" , thanks.
> 10 µM

Need AC50 of "Cc1nc(Nc2ncc(C(=O)Nc3c(C)cccc3Cl)s2)cc(N2CCN(CCO)CC2)n1" , thanks.
> 10 µM

----------
- Assayed system: B2 bradykinin receptor (Homo sapiens, UniProt P30411); further: assay procedure not described here
- Sequence (P30411 whole entry): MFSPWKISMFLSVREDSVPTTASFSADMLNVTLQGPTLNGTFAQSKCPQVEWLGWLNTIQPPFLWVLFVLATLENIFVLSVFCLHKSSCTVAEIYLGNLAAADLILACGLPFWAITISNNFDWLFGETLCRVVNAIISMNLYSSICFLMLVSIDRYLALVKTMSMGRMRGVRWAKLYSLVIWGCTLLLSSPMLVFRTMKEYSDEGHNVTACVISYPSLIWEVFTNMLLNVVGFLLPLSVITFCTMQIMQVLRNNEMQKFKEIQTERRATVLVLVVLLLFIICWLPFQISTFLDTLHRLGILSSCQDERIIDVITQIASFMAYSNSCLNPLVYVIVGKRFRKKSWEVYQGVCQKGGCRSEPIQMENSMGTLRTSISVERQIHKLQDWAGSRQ
Measurement label: AC50

{"Compound": "O=C1c2cccc3c2[C@H](CCC3)CN1[C@@H]1CN2CCC1CC2 [PALONOSETRON]", "Measurement label": "AC50", "Data value": "> 30 µM"}

Need AC50 of CC(CN1c2ccccc2Sc2ccccc21)N(C)C (stereo unspecified) [PROMETHAZINE] , thanks.
> 30 µM

Need AC50 of Cc1cccc(C)c1NC(=O)CC12CCCN1CCC2 [PILSICAINIDE] , thanks.
> 30 µM

Need AC50 of COc1ccc(C2C(=O)c3ccccc3C2=O)cc1 [ANISINDIONE] , thanks.
> 10 µM

Need AC50 of Fc1ccc([C@@H]2CCNC[C@H]2COc2ccc3c(c2)OCO3)cc1 [PAROXETINE] , thanks.
> 30 µM

----------
- Assayed system: UniProtKB P35348
- Sequence (P35348 whole entry): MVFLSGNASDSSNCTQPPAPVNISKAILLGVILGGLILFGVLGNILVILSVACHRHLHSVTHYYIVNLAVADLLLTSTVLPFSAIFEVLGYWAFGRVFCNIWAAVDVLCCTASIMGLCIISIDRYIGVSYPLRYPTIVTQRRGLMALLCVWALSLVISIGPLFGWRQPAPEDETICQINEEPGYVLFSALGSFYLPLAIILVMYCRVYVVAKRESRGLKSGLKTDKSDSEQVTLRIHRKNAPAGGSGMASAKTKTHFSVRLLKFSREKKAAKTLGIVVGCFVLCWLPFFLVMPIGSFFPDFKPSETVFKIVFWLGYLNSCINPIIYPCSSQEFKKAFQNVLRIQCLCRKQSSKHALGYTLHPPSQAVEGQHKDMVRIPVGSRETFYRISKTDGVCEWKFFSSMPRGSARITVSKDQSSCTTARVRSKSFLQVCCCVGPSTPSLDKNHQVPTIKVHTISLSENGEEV
- Type: functional, cell-based
Where a SMILES comes first, the peptide text is derived from it. [ ]: non-standard residue; d: D form. pGlu = O=C1CC[C@@H](C(=O)O)N1; Thz = O=C(O)[C@@H]1CSCN1
Measurement label: AC50

Examples with their reported AC50 follow.
{"Molecule": "CC(C)C[C@H](NC(=O)[C@@H](O)[C@H](N)Cc1ccccc1)C(=O)O", "Assayed system": "UniProtKB P35348", "Data value": "> 30 µM"}
{"Molecule": "O=C1CC[C@@H](C(=O)N2CSC[C@H]2C(=O)O)N1 [PIDOTIMOD] ([pGlu]-[Thz]-OH)", "Assayed system": "UniProtKB P35348", "Data value": "> 30 µM"}
{"Molecule": "C[N+](C)(C)CCOP(=O)(O)OP(=O)([O-])OC[C@H]1O[C@@H](n2ccc(N)nc2=O)[C@H](O)[C@@H]1O", "Assayed system": "UniProtKB P35348", "Data value": "> 30 µM"}
{"Molecule": "CCCCOc1ccc(C(=O)CCN2CCCCC2)cc1", "Assayed system": "UniProtKB P35348", "Data value": "> 30 µM"}
{"Molecule": "c1ccc(C2(N3CCCCC3)CCCCC2)cc1", "Assayed system": "UniProtKB P35348", "Data value": "> 30 µM"}

For the next question, use this molecule.
Need AC50 of "CN(C)CCCN1c2ccccc2CCc2ccccc21" , thanks.
0.41 µM
